Target: UniProt P35557
Sequence (P35557 1-464 isoform P35557-3): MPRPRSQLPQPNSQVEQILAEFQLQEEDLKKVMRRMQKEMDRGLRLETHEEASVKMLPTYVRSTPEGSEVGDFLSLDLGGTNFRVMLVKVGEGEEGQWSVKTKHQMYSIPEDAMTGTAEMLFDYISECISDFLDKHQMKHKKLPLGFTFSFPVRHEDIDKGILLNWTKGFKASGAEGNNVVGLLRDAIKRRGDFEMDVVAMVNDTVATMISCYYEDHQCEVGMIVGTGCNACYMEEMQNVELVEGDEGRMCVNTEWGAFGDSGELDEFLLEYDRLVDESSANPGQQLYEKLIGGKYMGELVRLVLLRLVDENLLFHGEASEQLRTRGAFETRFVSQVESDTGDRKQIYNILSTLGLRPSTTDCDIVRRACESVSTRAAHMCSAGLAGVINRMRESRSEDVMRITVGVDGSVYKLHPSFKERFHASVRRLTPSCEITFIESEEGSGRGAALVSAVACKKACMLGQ
Assay: Determination of GK activity value (GST-hLGK1, Mant-ATP, capillary electrophoresis)
Conditions: glucokinase activation; GST-hLGK1, D-glucose, 37° C. for 60 min; concentration at midpoint between maximum activity value and control group activity value
Overview of recorded log10 EC50 for various compounds
RECORDED_ENDPOINT: log10 EC50 (log10 of the value in nM)

1. CN(c1cccc2cc(C3=NCC(CN4CCOCC4)S3)[nH]c12)S(=O)(=O)c1cccs1 (single isomer, unassigned) [Example 274]: 1.91
2. CN(c1cccc2cc(-c3ncc(CN4CCN5C(=O)OCC5C4)s3)[nH]c12)S(=O)(=O)c1cccs1 (stereo not drawn) [Example 229]: 2.08
3. CC(=O)N1CCN(Cc2cnc(-c3cc4c(Cl)ccc(N(C)S(=O)(=O)c5cccs5)c4[nH]3)s2)CC1 [Example 191]: 1.49
4. CN(c1cccc2cc(C3=NCC(C(C)(C)O)S3)[nH]c12)S(=O)(=O)c1cccs1 (stereo not drawn) [Example 226]: 1.72
5. CCN(c1cccc2cc(-c3ncc(CN4CCn5cnnc5C4)s3)[nH]c12)S(=O)(=O)c1cccs1 [Example 236]: 2.40
6. CN(c1cccc2cc(C3=NCC4(CCOCC4)S3)[nH]c12)S(=O)(=O)c1cccs1 [Example 243]: 1.38
7. COCCOc1cc(N(C)S(=O)(=O)c2ccccn2)c2[nH]c(C3=N[C@@H](CO)CS3)cc2c1 [Example 254]: 2.30
8. CN(c1cccc2cc(C3=NCC(CC(N)=O)S3)[nH]c12)S(=O)(=O)c1ccccn1 (single isomer, unassigned) [Example 337]: 1.91
9. O=S(=O)(c1cccs1)N(c1cccc2cc(C3=NCC(CN4CCOCC4)S3)[nH]c12)C(F)F (single isomer, unassigned) [Example 348]: 1.64
10. CC(=O)N1CCN(CC2CN=C(c3cc4cccc(N(C)S(=O)(=O)c5cccs5)c4[nH]3)S2)CC1 (stereo not drawn) [Example 218]: 2.26
11. CC(=O)N1CCN(Cc2nnc(-c3cc4cccc(N(C)S(=O)(=O)c5cccs5)c4[nH]3)s2)CC1 [Example 198]: 2.72
12. CN(c1cc(OC(F)(F)F)cc2cc(C3=NCC(CC(N)=O)S3)[nH]c12)S(=O)(=O)c1cccs1 (single isomer, unassigned) [Example 520]: 2.28

====

Overview of recorded melting point for various compounds
RECORDED_ENDPOINT: melting point

1) O=S(=O)(c1cccs1)N(c1cccc2cc(C3=NCC(CN4CCOCC4)S3)[nH]c12)C(F)F (centres unmarked): 185 to 186 °C
2) COc1ccccc1S(=O)(=O)N(C)c1cccc2cc(C3=NCC(CC(=O)N4CCC(O)CC4)S3)[nH]c12 (centres unmarked): 166 to 167 °C
3) CN(c1cccc2cc(C3=NCC(CCO)S3)[nH]c12)S(=O)(=O)c1ccccc1C(F)(F)F (centres unmarked): 153 to 154 °C
4) COc1ccccc1S(=O)(=O)N(C)c1cccc2cc(C3=NCC(CCO)S3)[nH]c12 (centres unmarked): 154 to 155 °C
5) Cc1ccc(N(C)S(=O)(=O)c2cccs2)c2[nH]c(C3=NCC(CC(=O)O)S3)cc12 (centres unmarked): 269 to 270 °C
6) C=CC(=O)CC1CN=C(c2cc3cccc(N(C)S(=O)(=O)c4cccs4)c3[nH]2)S1 (centres unmarked): 157 to 158 °C
7) CCOC(=O)CC1CN=C(c2cc3cccc(N(C)S(=O)(=O)c4cccs4)c3[nH]2)S1 (centres unmarked): 101 to 102 °C
8) CN(c1cccc2cc(C3=NCC(CCO)S3)[nH]c12)S(=O)(=O)c1cccs1 (centres unmarked): 174 to 175 °C
